Assignment: determine reported Pre-emergence action rating, Echino. for the given compounds.
Test system: Monocotyledonous and dicotyledonous test plants
test_protocol: Herbicidal action before emergence of the plants (pre-emergence action), greenhouse pot test, 9-level rating after 4 weeks
Format: in vivo
settings: Echino., 250 g/ha, rated after 4 weeks, 9-level scale
Description: Herbicidal Action Before Emergence of the Plants (Pre-Emergence Action) Monocotyledonous and dicotyledonous test plants are sown in standard soil in pots. […] After a test period of 4 weeks, the test is evaluated using a 9-level scale of ratings (1=complete damage, 9=no effect). […]
Give only the figure.

# lookup: Pre-emergence action rating, Echino. of COc1cc(OC)nc(SCc2nc(C(F)(F)F)ccc2C(=O)C2=C(O)C3CCC(C3)C2=O)n1 (centres unmarked) 3

How about CCOCCOCc1nc(C(F)(F)F)ccc1C(=O)c1cnn(C)c1O ? 1

How about O=C(C1=C(O)C2CCC(C2)C1=O)c1ccc(C(F)(F)F)nc1COCC1CCCCO1 (centres unmarked) ? 1

How about COCCOCc1nc(C(F)(F)Cl)ccc1C(=O)C1=C(O)C2CCC(C2)C1=O (centres unmarked) ? 1

How about O=C(C1=C(O)C2CCC(C2)C1=O)c1ccc(C(F)(F)F)nc1COCc1ccccc1 (centres unmarked) ? 2
